Source: the supplement of paper PMC12764529

# method.summary: folding stability dG unfold from chymotrypsin proteolysis; higher = more stable
Threshold check on folding stability dG unfold: at or above 1 kcal/mol gives Criterion met, strictly below gives Criterion not met.

Worked set:
[
  {
    "polymer.sequence": "SAMLEEVEERAREIAERLREEYPDVEEFTVELELPLPDGRFLRVTVTIRRERDDEGDTFEVEVDVEEVDSAG [r14_788_TrMRF]",
    "cat": "Criterion met"
  },
  {
    "polymer.sequence": "SADPPDAVKIEIRIYMMEYDPDGKWEQREFNIEIEVAPDGHIIIRLGNWWIVIDPKEGEVTEIFPGFRFSAG [r14_821_TrROS]",
    "cat": "Criterion met"
  },
  {
    "polymer.sequence": "SAGGMKVTTKPLPSDSEVVDIPGGVTMKIDPKTGVGTITLPDGKTLKMTITKDPNKNTTTITITPESSAGGS [r8_186_JUSTAS]",
    "cat": "Criterion met"
  }
]

Asked: Determine whether measured folding stability dG unfold meets or exceeds 1 kcal/mol for SAGRKIPIMFTWPNGDPERMEEIAIEFANYLQPNGLPNVTIKIERKPVKDPENGKRRYVYMVTIEVQPPSAG [r5_49_TrROS]
Given back: Criterion met

Asked: Determine whether measured folding stability dG unfold meets or exceeds 1 kcal/mol for SAGGSAGGSDDMIPIPFKIKLKDPNGKPHEFPVTIWINPEDGMIMIRYPNQPIMIDPDKIEIESAGGSAGGS [r20_48_TrROS]
Given back: Criterion met

Asked: Determine whether measured folding stability dG unfold meets or exceeds 1 kcal/mol for SAGGSAMVVTVPASSLTPESIRALARENPGPVELVFPEEGRRVTVEVRGDGVVRVEEHPLDPAELASAGGSA [r15_751_JUSTAS]
Given back: Criterion not met

Asked: Determine whether measured folding stability dG unfold meets or exceeds 1 kcal/mol for SAGGMITLEEPELDPSRPVTRVKVLTEIPAPGGVPVVVETTYTDTRAPGDPSVTVVTSTTTVVPGAAGSAGG [r13_131_JUSTAS]
Given back: Criterion not met

Asked: Determine whether measured folding stability dG unfold meets or exceeds 1 kcal/mol for SAGGSAPPPKWIMFKIEATMPPNDLDNVVEELLKILFGFKIKNIEVEWEQVKDGYYKVPVWVMIRFSAGGSA [r15_138_TrROS]
Given back: Criterion met

Asked: Determine whether measured folding stability dG unfold meets or exceeds 1 kcal/mol for SAGGSAGGSGSSSLLEETTDASGVRHLLTLVRLPGGKVLLVTTTVYPSGESTTTTEETDGSLLSAGGSAGGS [r12_995_JUSTAS]
Given back: Criterion met

Asked: Determine whether measured folding stability dG unfold meets or exceeds 1 kcal/mol for SITISPDKVYTLKNVRVGDYEVDGLVAVAGPDGTVYVPADVRPVVVPPPAPPVGLDPVDGGVYDITDPSVSA [r9_603_TrMRF]
Given back: Criterion not met

Asked: Determine whether measured folding stability dG unfold meets or exceeds 1 kcal/mol for SAGGSAGGAPPDLKVTVKPTPGPGTGQRYTVVVELDEGGVLPFPFSFASPSEVEKAAKAIAALLSAGGSAGG [r6_996_TrMRF]
Given back: Criterion met

Asked: Determine whether measured folding stability dG unfold meets or exceeds 1 kcal/mol for SPNFRISPEIKNAIKRALKENEPGKKVEIRMRYPDGPTIMISIDKPGSINIEVEPDPGKPIMEFEFDIKDSA [r9_132_TrROS]
Given back: Criterion not met

Asked: Determine whether measured folding stability dG unfold meets or exceeds 1 kcal/mol for SAGGSSPPGVKVEVTVEVTYIPSKGGYKLTFYRPGGEKVDTKELEKDKLEEAKEELKAKGFDVVKIKKSAGG [r13_765_JUSTAS]
Given back: Criterion not met

Asked: Determine whether measured folding stability dG unfold meets or exceeds 1 kcal/mol for SGSFKLLKVEEHPDNPSITAVLTFPDGSTATLRFRPDGSWTGYVESTGKPFTAVSGENELKLFVPEELTLSA [r9_233_TrMRF]
Given back: Criterion not met

Asked: Determine whether measured folding stability dG unfold meets or exceeds 1 kcal/mol for SAGGSAGGEATEGTLIVGGKPVRVTVERTPEGGRIATVELPNGVTVVARLNPVTRGAEILEVVESAGGSAGG [r6_290_TrMRF]
Given back: Criterion met

Asked: Determine whether measured folding stability dG unfold meets or exceeds 1 kcal/mol for SAMITVEIVDPLPDIANLSEEEAKALAEELAEEYAKKKFPNENVKITKVEVELEPETPEIRVTVTLELKSAG [r14_310_JUSTAS]
Given back: Criterion met

Asked: Determine whether measured folding stability dG unfold meets or exceeds 1 kcal/mol for SAGGSAGGSAMELVVKEVEYRGPLSLSIEEIAEEIEKKEGIKVIELEEYPDEKVKITIEKVSAGGSAGGSAG [r3_66_JUSTAS]
Given back: Criterion not met

Asked: Determine whether measured folding stability dG unfold meets or exceeds 1 kcal/mol for SAGGSAGGSSKTFKDPDGWTITVEPLDGGVKVEIYWPDGQRQEHLIPPGEPIKIDPNGWYIEISAGGSAGGS [r12_281_TrROS]
Given back: Criterion met

Asked: Determine whether measured folding stability dG unfold meets or exceeds 1 kcal/mol for SAGSEEEKKAIAEELKEKILKERPELQKKEYTVEVEITPLPDDSIRITVTVTLPSGETETREYVYPNKSAGG [r19_194_JUSTAS]
Given back: Criterion met

Asked: Determine whether measured folding stability dG unfold meets or exceeds 1 kcal/mol for SAGGSAGGMKEGEEFEIELPDKYKVKIRVKDNIIEVEFPPGLRVRAEILENGEVKVYLPPELKPSAGGSAGG [r6_970_TrMRF]
Given back: Criterion met

Asked: Determine whether measured folding stability dG unfold meets or exceeds 1 kcal/mol for SAGGGPDEVSEVKVSSTTTDPATGKTYTVDTTTVTTPGTVTTNTTYTVHDPVTGAVTTETTTTTTPPGSAGG [r13_206_JUSTAS]
Given back: Criterion not met

Asked: Determine whether measured folding stability dG unfold meets or exceeds 1 kcal/mol for SAGGSAGGSAMKIKIEVVKNKNGYYYLKVEIEVNGKKIEITIKVPKNEKVSIEELLKKILKKSAGGSAGGSA [r18_111_TrROS_Hall]
Given back: Criterion met
